# reported MIC; entries follow
Tested on: Staphylococcus aureus
test_method_notes: Potentiation of oxacillin induced antibacterial activity against Staphylococcus aureus MRSA252 assessed as oxacillin MIC at 16 uM measured after 16 to 20 hrs in presence of 2% NaCl by microdilution broth method (reference value: 256 mg/L)
Assay type: functional

Known MIC results, listed for orientation:
CS(=O)(=O)/C(C#N)=C/c1cc(Cc2ccc(Cl)c(Cl)c2)ccc1F = 256 µg/mL
CS(=O)(=O)/C(C#N)=C/c1cc(Cc2ccc(Cl)c(Cl)c2)ccc1OC(F)(F)F = ≤ 0.03 µg/mL
CS(=O)(=O)/C(C#N)=C/c1c(F)ccc(Cc2ccc(Cl)c(Cl)c2)c1F = 256 µg/mL

query: Output MIC of "N#C/C(=C\c1cc(Cc2ccc(Cl)c(Cl)c2)ccc1F)S(=O)(=O)c1ccccn1"
result: 128 µg/mL

query: Output MIC of "CS(=O)(=O)/C(C#N)=C/c1cc(-c2ccc(Cl)c(Cl)c2)ccc1F"
result: 128 µg/mL

###

Test system: Staphylococcus aureus
test_method_notes: Potentiation of oxacillin induced antibacterial activity against Staphylococcus aureus USA100-NRS382 assessed as oxacillin MIC at 8 uM measured after 16 to 20 hrs in presence of 2% NaCl by microdilution broth method (reference value: 64 mg/L)
Format: functional
parameter: MIC (µg/mL)
Give your result in µg/mL as a bare value.

Known MIC results, listed for orientation:
CS(=O)(=O)/C(C#N)=C/c1c(F)ccc(Cc2ccc(Cl)c(Cl)c2)c1F = 1
CS(=O)(=O)/C(C#N)=C/c1cc(Cc2ccc(Cl)c(Cl)c2)ccc1OC(F)(F)F = 0.5
N#C/C(=C\c1cc(Cc2ccc(Cl)c(Cl)c2)ccc1F)S(=O)(=O)c1ccccn1 = 0.5
CS(=O)(=O)/C(C#N)=C/c1cc(Cc2ccc(Cl)c(Cl)c2)ccc1F = 1

Consider the record given below.
query: Output MIC of "CS(=O)(=O)/C(C#N)=C/c1cc(-c2ccc(Cl)c(Cl)c2)ccc1F"
result: 4

###

# reported MIC; entries follow
Test system: Staphylococcus aureus
test_method_notes: Antibacterial activity against Staphylococcus aureus Mu50 NRS1 measured after 16 to 20 hrs in presence of 2% NaCl by microdilution broth method
Assay type: functional
Give your result in µg/mL as a bare value.

N#C/C(=C\c1cc(Cc2ccc(Cl)c(Cl)c2)ccc1F)S(=O)(=O)c1ccccn1 = 16
CS(=O)(=O)/C(C#N)=C/c1cc(-c2ccc(Cl)c(Cl)c2)ccc1F = 16
CS(=O)(=O)/C(C#N)=C/c1cc(Cc2ccc(Cl)c(Cl)c2)ccc1OC(F)(F)F = 32

Consider the record given below.
query: Output MIC of "CS(=O)(=O)/C(C#N)=C/c1c(F)ccc(Cc2ccc(Cl)c(Cl)c2)c1F"
result: 16

###

# reported fold change (FC); entries follow
Tested on: Staphylococcus aureus
test_method_notes: Potentiation of oxacillin induced antibacterial activity against methicillin susceptible Staphylococcus aureus ATCC29213 assessed as reduction in oxacillin MIC at 20 uM measured after 16 to 20 hrs in presence of 2% NaCl by microdilution broth method
Assay type: functional

Known fold change (FC) results, listed for orientation:
CS(=O)(=O)/C(C#N)=C/c1cc(-c2ccc(Cl)c(Cl)c2)ccc1F = 2 - 10
CS(=O)(=O)/C(C#N)=C/c1cc(Cc2ccc(Cl)c(Cl)c2)ccc1F = 2 - 10
CS(=O)(=O)/C(C#N)=C/c1cc(Cc2ccc(Cl)c(Cl)c2)ccc1OC(F)(F)F = 2 - 10

query: Output fold change (FC) of "N#C/C(=C\c1cc(Cc2ccc(Cl)c(Cl)c2)ccc1F)S(=O)(=O)c1ccccn1"
result: 2 - 10

query: Output fold change (FC) of "CS(=O)(=O)/C(C#N)=C/c1c(F)ccc(Cc2ccc(Cl)c(Cl)c2)c1F"
result: 2 - 10
